- measurement.target: T1, SNTG1, Q9NSN8
- T1 sequence (Q9NSN8 52-150, limits assumed, looked up): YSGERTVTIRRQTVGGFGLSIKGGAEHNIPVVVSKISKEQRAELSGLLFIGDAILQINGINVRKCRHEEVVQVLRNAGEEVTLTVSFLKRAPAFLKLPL
- assay.remarks: holdup assay
- Design: key: below the threshold = too weak to quantify, mostly under pKd 3.1 to 4
- particulars: plain residues with an end cap or a label only (N-terminal biotin on a linker: ado-ado)
measurement.label: pKd

binder="GSGAVEMESV [AQP6, Q13520]" result="below the threshold"
binder="LGRSTPQSEV [DGKH, Q86XP1]" result=3.96
binder="SARSRLSSNL [HCN2, Q9UL51]" result="below the threshold"
binder="SSALYGESDL [ACTN2, P35609]" result=4.12
binder="LPHGHSTTRV [NLGN4X, Q8N0W4]" result="below the threshold"
binder="QHKTQLQTLI [BPIFA2, Q96DR5]" result=3.47
binder="TKGPRGPTRV [SAPCD1, Q5SSQ6]" result="below the threshold"
binder="LSEFKAMDSI [CTNNA1, P35221]" result="below the threshold"
binder="TACCHSETVV [TGFA, P01135]" result=4.43
binder="NLSIEKETKL [ASNSD1, Q9NWL6]" result=4
binder="QKNRKAQEDL [CES3, Q6UWW8]" result="below the threshold"
binder="PEYLGLDVPV [ERBB2, P04626]" result=3.55
binder="VKPQVSESKL [ACOT8, O14734]" result="below the threshold"
binder="QPCFNKLFPL [LPXN, O60711]" result="below the threshold"
binder="NHSSSPETTA [TRMT13, Q9NUP7]" result="below the threshold"
binder="RKPKPSSSCC [RAB9A, P51151]" result="below the threshold"
binder="VYPNAKVELV [PDLIM4_iso2, P50479;P50479-1]" result="below the threshold"
binder="RRISSLESEV [GRIN2C, Q14957]" result=5.11
